remaining activity at 10 µM values for the molecules below.
- tgt: BACE1 (Homo sapiens)
- Construct: purchased Sigma-Aldrich
- Sequence (P56817 46-501): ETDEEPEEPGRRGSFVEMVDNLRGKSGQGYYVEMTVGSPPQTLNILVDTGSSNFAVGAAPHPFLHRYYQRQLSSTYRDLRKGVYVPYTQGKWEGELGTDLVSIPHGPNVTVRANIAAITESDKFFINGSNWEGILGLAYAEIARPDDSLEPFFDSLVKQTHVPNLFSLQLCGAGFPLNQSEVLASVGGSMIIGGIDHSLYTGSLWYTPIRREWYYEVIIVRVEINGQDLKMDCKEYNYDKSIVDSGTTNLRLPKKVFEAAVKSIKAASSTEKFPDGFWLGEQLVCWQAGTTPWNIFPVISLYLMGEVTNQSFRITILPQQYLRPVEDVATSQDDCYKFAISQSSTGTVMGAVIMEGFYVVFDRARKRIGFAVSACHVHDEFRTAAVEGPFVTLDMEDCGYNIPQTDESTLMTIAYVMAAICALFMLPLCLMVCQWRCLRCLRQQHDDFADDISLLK
- measurement-description: BACE1 inhibition (fluorescent activity detection kit)
- Format: biochemical
- condition-label: read-out: Residual Activity at 10 µM (%) BACE1
Respond numerically; units are % and should not be typed.

{"columns": ["molecule", "reading"],
 "data": [
  ["COc1cc([C@H]2OC[C@H]3[C@@H]2CO[C@@H]3c2cc(OC)c(O)c(OC)c2)cc(OC)c1O [Compound 5, (+)-syringaresinol]", 81.7]
]}

# ---- query molecule ----
[Q] Name the recorded remaining activity at 10 µM for COc1ccc2c(c1)OC1c3ccc(O)cc3OCC21 (stereo not drawn) [Compound 8, 3-hydroxy-9-methoxypterocarpan] .
[A] 111
